The sequences listed here are annotated with their self-aminoacylation.
Tested on: biotinyl-Val-oxazolone
EXPERIMENT SUMMARY: self-aminoacylation, catalytic enhancement (BVO) (fold over background); higher = more active; k-Seq, kA / k0A0; sequences stand for … in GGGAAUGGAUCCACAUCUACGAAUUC…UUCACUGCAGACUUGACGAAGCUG
Fewer inactive variants are shown than the library holds.
Output: the number by itself.

Reference set (3 entries):
RESIDUE STRING: GAGUUUGCUAAUAGUCGCGAG [Fam3.1 aminoacylation ribozyme variant]
EXPERIMENTAL TARGET: biotinyl-Val-oxazolone
self-aminoacylation: 1.38
--
RESIDUE STRING: CCACGCUUCAAGCAAUCGGCC [Fam1B.1 aminoacylation ribozyme variant]
EXPERIMENTAL TARGET: biotinyl-Val-oxazolone
self-aminoacylation: 2.77
--
RESIDUE STRING: AUUACCCUGGUAUUCGAGUGA [Fam2.1 aminoacylation ribozyme variant]
EXPERIMENTAL TARGET: biotinyl-Val-oxazolone
self-aminoacylation: 3.65

Here is the next item to consider.
Measured self-aminoacylation of AUUGACCUAGGUCAUCCGGUG [Fam2.2 aminoacylation ribozyme variant] : 3.31

----------
Measured self-aminoacylation, listed per entry.
Test system: biotinyl-Val-oxazolone
EXPERIMENT SUMMARY: self-aminoacylation, catalytic enhancement (BVO) (fold over background); higher = more active; k-Seq, kA / k0A0; sequences stand for … in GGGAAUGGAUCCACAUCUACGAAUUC…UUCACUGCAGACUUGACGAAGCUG
Variants at the floor of the assay were thinned out.
Give the value as a plain number.

Example results:
RESIDUE STRING: CUACUUCAAACAAUCCGUCUA [Fam1A.1 aminoacylation ribozyme variant]
self-aminoacylation: 0.88

RESIDUE STRING: AUUCACCUAGGUCAACAGGUG [Fam2.2 aminoacylation ribozyme variant]
self-aminoacylation: 1.56

RESIDUE STRING: AAUACCCGGGUCAUCGAGUGA [Fam2.1 aminoacylation ribozyme variant]
self-aminoacylation: 3.64

Okay, now this sequence:
Lab note: sequence CCACACUUCAAGCAACCAGUC [Fam1B.1 aminoacylation ribozyme variant] tested on biotinyl-Val-oxazolone; recorded self-aminoacylation was 0.941

----------
Test system: biotinyl-Phe-oxazolone
EXPERIMENT SUMMARY: self-aminoacylation, catalytic enhancement (BFO) (fold over background); higher = more active; k-Seq, kA / k0A0; sequences stand for … in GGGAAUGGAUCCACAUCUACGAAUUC…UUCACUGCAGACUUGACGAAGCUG
This sample holds only a part of the variants without activity.
Is self-aminoacylation at least 0.6? Then Y. If not, N.

Some entries whose results are on file:
RESIDUE STRING: CCACACUUCGAGCAAUCGAUC [Fam1B.1 aminoacylation ribozyme variant]
EXPERIMENTAL TARGET: biotinyl-Phe-oxazolone
ASSIGNED CLASS: N
--
RESIDUE STRING: AUUACGCUGGUCAUCGAGGGA [Fam2.1 aminoacylation ribozyme variant]
EXPERIMENTAL TARGET: biotinyl-Phe-oxazolone
ASSIGNED CLASS: Y
--
RESIDUE STRING: AUCCACCUAGGUCAUCGAGUG [Fam2.2 aminoacylation ribozyme variant]
EXPERIMENTAL TARGET: biotinyl-Phe-oxazolone
ASSIGNED CLASS: Y
--
RESIDUE STRING: CUAGUUUAAACAAUCGGUCUG [Fam1A.1 aminoacylation ribozyme variant]
EXPERIMENTAL TARGET: biotinyl-Phe-oxazolone
ASSIGNED CLASS: Y
--
RESIDUE STRING: CCACACUUCGAGCAAUAGGUC [Fam1B.1 aminoacylation ribozyme variant]
EXPERIMENTAL TARGET: biotinyl-Phe-oxazolone
ASSIGNED CLASS: N

Could you tell me if the measured self-aminoacylation of AUUACCCUGGUCAUCGAAUGC [Fam2.1 aminoacylation ribozyme variant] reaches 0.6 or more?
N

Please check the record CCACACUUCAAGAAAUCUGUC [Fam1B.1 aminoacylation ribozyme variant] and state if its self-aminoacylation is at or above 0.6.
N

In plain terms: is recorded self-aminoacylation at least 0.6 for CCACACUUCAAGCAAUCGGGG [Fam1B.1 aminoacylation ribozyme variant] ?
Y

----------
Test system: biotinyl-Met-oxazolone
EXPERIMENT SUMMARY: self-aminoacylation, catalytic enhancement (BMO) (fold over background); higher = more active; k-Seq, kA / k0A0; sequences stand for … in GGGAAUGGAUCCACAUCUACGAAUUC…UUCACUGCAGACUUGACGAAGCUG
Variants at the floor of the assay were thinned out.
Recorded self-aminoacylation by entry
Lab note: jot down the number only; don't add units.

RESIDUE STRING: AAGUUUGCUGAUAGUCGCCAG [Fam3.1 aminoacylation ribozyme variant]
EXPERIMENTAL TARGET: biotinyl-Met-oxazolone
self-aminoacylation: 1.41
//
RESIDUE STRING: AUUCAGCUAGGUCAUCUGGUG [Fam2.2 aminoacylation ribozyme variant]
EXPERIMENTAL TARGET: biotinyl-Met-oxazolone
self-aminoacylation: 2.3
//
RESIDUE STRING: AAGUUUGCUAAUAGUCGGAAU [Fam3.1 aminoacylation ribozyme variant]
EXPERIMENTAL TARGET: biotinyl-Met-oxazolone
self-aminoacylation: 1.5
//
RESIDUE STRING: CUACGUCAAACAGUCGGUCUG [Fam1A.1 aminoacylation ribozyme variant]
EXPERIMENTAL TARGET: biotinyl-Met-oxazolone
self-aminoacylation: 1.25
//
RESIDUE STRING: CCACACUUCAAGCCGUCGGUC [Fam1B.1 aminoacylation ribozyme variant]
EXPERIMENTAL TARGET: biotinyl-Met-oxazolone
self-aminoacylation: 1.47
//
RESIDUE STRING: CCACACAUCAAGCAACCGGUC [Fam1B.1 aminoacylation ribozyme variant]
EXPERIMENTAL TARGET: biotinyl-Met-oxazolone
self-aminoacylation: 1.21
//
RESIDUE STRING: AAGUCUGCUAAUAGUGGCAAG [Fam3.1 aminoacylation ribozyme variant]
EXPERIMENTAL TARGET: biotinyl-Met-oxazolone
self-aminoacylation: 0.98
//
RESIDUE STRING: AUUCACCUACGUCAUUGGGUG [Fam2.2 aminoacylation ribozyme variant]
EXPERIMENTAL TARGET: biotinyl-Met-oxazolone
self-aminoacylation: 1.97

Let us move to another entry and its self-aminoacylation.
Entry CGACACUUCAAGCAAUCGGGC [Fam1B.1 aminoacylation ribozyme variant] — recorded self-aminoacylation = 1.36

----------
self-aminoacylation values, listed per item
Test system: biotinyl-Met-oxazolone
EXPERIMENT SUMMARY: self-aminoacylation, catalytic enhancement (BMO) (fold over background); higher = more active; k-Seq, kA / k0A0; sequences stand for … in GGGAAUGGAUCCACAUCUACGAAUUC…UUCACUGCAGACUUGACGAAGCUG
This sample holds only a part of the variants without activity.
Response field accepts a number only; no unit should be typed.

Look over these answered cases.
RESIDUE STRING: AAGAUUGCUAAAAGUCGCAAG [Fam3.1 aminoacylation ribozyme variant]
self-aminoacylation: 1.87
//
RESIDUE STRING: AUUACCCUGGUAAGCGAGUGA [Fam2.1 aminoacylation ribozyme variant]
self-aminoacylation: 5.79
//
RESIDUE STRING: CUACUUAAAACAGUCGGUCUG [Fam1A.1 aminoacylation ribozyme variant]
self-aminoacylation: 0.742
//
RESIDUE STRING: CUACUUCAAACAAUCGGUCAU [Fam1A.1 aminoacylation ribozyme variant]
self-aminoacylation: 0.666

Value sought: self-aminoacylation, system biotinyl-Met-oxazolone, item CUUACCCUGGUCAUCGAGUGU [Fam2.1 aminoacylation ribozyme variant] . Result: 26.4

Bench note, biotinyl-Met-oxazolone: AUUUCCCUGGUAAUCGAGUGA [Fam2.1 aminoacylation ribozyme variant] , self-aminoacylation reads 7.89

Item UACUUUGCUAAUAGUCGCAAG [Fam3.1 aminoacylation ribozyme variant] ; assay system biotinyl-Met-oxazolone; self-aminoacylation reported as 1.66

Item AUUUACCUAGGUCAUCUGGUG [Fam2.2 aminoacylation ribozyme variant] ; assay system biotinyl-Met-oxazolone; self-aminoacylation reported as 2.73

Field self-aminoacylation (biotinyl-Met-oxazolone), entry AUUAACCUAGGUCAUCGGGAG [Fam2.2 aminoacylation ribozyme variant] : 0.94

----------
Form field: self-aminoacylation (one value per entry).
Tested on: biotinyl-Leu-oxazolone
EXPERIMENT SUMMARY: self-aminoacylation, catalytic enhancement (BLO) (fold over background); higher = more active; k-Seq, kA / k0A0; sequences stand for … in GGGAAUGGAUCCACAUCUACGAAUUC…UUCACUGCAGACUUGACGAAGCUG
This sample holds only a part of the variants without activity.

Known self-aminoacylation results, listed for orientation:
RESIDUE STRING: AAGUCUGCUUAUAGUCGCAAG [Fam3.1 aminoacylation ribozyme variant]
self-aminoacylation: 1.25
--
RESIDUE STRING: AUUACUCUGGUCAUCGAGUGU [Fam2.1 aminoacylation ribozyme variant]
self-aminoacylation: 4.37
--
RESIDUE STRING: ACGUUUGCUAAUAGUCGCAUG [Fam3.1 aminoacylation ribozyme variant]
self-aminoacylation: 2.5
--
RESIDUE STRING: AAGUCCGCUAAUAGUCGCAAG [Fam3.1 aminoacylation ribozyme variant]
self-aminoacylation: 2.02
--
RESIDUE STRING: CCACACUGCAAGCAAUCGGCC [Fam1B.1 aminoacylation ribozyme variant]
self-aminoacylation: 1.99

In plain terms, AUAUACCUAGGUCAUCGGGUG [Fam2.2 aminoacylation ribozyme variant] has a documented self-aminoacylation of 5.38

Given item CCACAGUUCAAGCCAUCGGUC [Fam1B.1 aminoacylation ribozyme variant] , the value recorded as its self-aminoacylation is 2.53

Record AAGUUUGCUAAUAAACGCAAG [Fam3.1 aminoacylation ribozyme variant] . Reported self-aminoacylation: 0.687

self-aminoacylation recorded for this sequence, AUGACCCUGGUCACCGAGUGA [Fam2.1 aminoacylation ribozyme variant] , is 11.7

These data points were gathered from the supplement of paper PMC9233669.
